Molecular target: Protein Rev (Human immunodeficiency virus type 1 group M subtype B (isolate WMJ22)) (UniProt P05866)
Sequence (P05866 whole entry, looked up): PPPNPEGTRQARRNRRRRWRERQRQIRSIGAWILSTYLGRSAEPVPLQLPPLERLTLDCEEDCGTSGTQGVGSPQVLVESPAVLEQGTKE
Assay: HIV-1 Rev-RRE binding inhibitors, retest, confirmation, biochemical, FRET, acceptor and relative FRET calls (AID 837);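 also: relative FRET combines rise in Cy5 acceptor with fall in fluorescein donor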
Details: Fl-Rev peptide / Cy5-RRE RNA FRET, 1536-well; at 8 µM
Calls of active or inactive are those of the source.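 The calls were made as follows: active = relative FRET score above 0.01, or acceptor fluorescence over 30% below the sample-well median; inactive = the rest.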
Respond using exactly one of the listed classes: active, inactive

• COc1ccc(CCNC(C)CCc2ccc(OC)cc2)cc1 (configuration not stated) = active
• Cc1ccc(-c2nc(N(C)C3CCN(C)CC3)c3ccccc3n2)cc1 = inactive
• CNCC(O)c1cccc(OC(=O)c2ccccc2C)c1 (configuration not stated) = inactive
• COc1ccc(CCNCc2ccc(SC)cc2)cc1 = inactive
• OC(Cc1ccccc1)(c1ccccc1)C1CN2CCC1CC2 (configuration not stated) = inactive
• COc1ccc(CCC(C)NCCc2ccccc2)cc1 (configuration not stated) = inactive

API: the following record is the query input.
// query # lookup: test call for CC1CCC(NCCc2ccc3c(c2)OCO3)CC1 (configuration not stated)
// result inactive

Cited source: PubChem BioAssay AID837
